settings: 348.15 K; 101.33 kPa; Liquid; Vibrating tube method
Each item that follows carries a reported mass density.
Reply numerically in kg/m3, unit not repeated.

Take a look at these entries with their results.
Compound	Unit Label	Result Number
CCCCn1cc[n+](CCC#N)c1.O=S(=O)([O-])c1ccccc1 [1-butyl-3-(2-cyanoethyl)-1H-imidazolium benzenesulfonate]	kg/m3	1204.4
CCCCCCCCCCCCOS(=O)(=O)[O-].CCCCn1cc[n+](CCC#N)c1 [1-butyl-3-(2-cyanoethyl)-1H-imidazol-3-ium dodecyl sulfate]	kg/m3	1086.3
CCCCCCCCCCCCOS(=O)(=O)[O-].CCCCCCCCCCn1cc[n+](CCC#N)c1 [3-(2-cyanoethyl)-1-decylimidazolium dodecylsulfate]	kg/m3	1025.8

With those in mind, consider the next compound.
## Input Could you share which mass density value was measured for CCCCCCCCCCn1cc[n+](CCC#N)c1.O=C([O-])c1cccc(S(=O)(=O)O)c1 [3-(2-cyanoethyl)-1-decylimidazolium 3-sulfobenzoate] ?
## Output 1099.3
